# ASSAYED_TARGET: Ba/F3 BCR-ABL1 T315I (Homo sapiens, UniProt P00519+P11274, T315I)
# Construct: BCR (N-terminal fusion partner of the oncoprotein)
# ASSAY_PROTOCOL: Cell growth inhibitory activity assay (CellTiter-Glo), Ba/F3 BCR-ABL1 T315I cells
# STUDY_CONDITIONS: 72 h, CTG cell viability
RECORDED_METRIC: IC50

> print(dat)
                                   molecule                            assayed.target         result
1  CC(C)n1cnc2cc(C(=O)Nc3ccc(OC(F)(F)Cl)cc3)cc(-c3cnc4c(c3)C(=O)N(C)C4)c21  Ba/F3 BCR-ABL1 T315I (Homo sapiens, UniProt P00519+P11274, T315I)     5 to 50 nM
2  C[C@@H]1COCc2nc3cc(C(=O)Nc4ccc(OC(F)(F)Cl)cc4)cc(-c4cnc5c(c4)-c4nn(-c6nccc(C(F)(F)F)n6)cc4C5)c3n21  Ba/F3 BCR-ABL1 T315I (Homo sapiens, UniProt P00519+P11274, T315I)         ≤ 5 nM
3  C[C@@H]1COCc2nc3cc(C(=O)Nc4ccc(OC(F)(F)Cl)cc4)cc(-c4cnc5c(c4)-c4nn(-c6ncc7ccn(C)c7n6)cc4C5)c3n21  Ba/F3 BCR-ABL1 T315I (Homo sapiens, UniProt P00519+P11274, T315I)         ≤ 5 nM
4  O=C(Nc1ccc(OC(F)(F)Cl)cc1)c1cnc(N2CC[C@@H](F)C2)c(-c2cnc3c(c2)-c2nn(-c4ncc(F)cn4)cc2C3)c1  Ba/F3 BCR-ABL1 T315I (Homo sapiens, UniProt P00519+P11274, T315I)         ≤ 5 nM
5  C[C@@H]1COCc2nc3cc(C(=O)Nc4ccc(OC(F)(F)Cl)cc4)cc(-c4cnc5c(c4)-c4nn(-c6ncc7ccccc7n6)cc4C5)c3n21  Ba/F3 BCR-ABL1 T315I (Homo sapiens, UniProt P00519+P11274, T315I)         ≤ 5 nM
6  O=C(Nc1ccc(OC(F)(F)Cl)cc1)c1cnc(N2CC[C@@H](F)C2)c(-c2cnc3c(c2)-c2nn(-c4ncc5ccccc5n4)cc2C3)c1  Ba/F3 BCR-ABL1 T315I (Homo sapiens, UniProt P00519+P11274, T315I)     5 to 50 nM
7  C[C@@H]1CC[S+]([O-])c2nc3cc(C(=O)Nc4ccc(OC(F)(F)Cl)cc4)cc(-c4cnc5c(c4)C(=O)N(C)C5)c3n21 (stereo partly shown)  Ba/F3 BCR-ABL1 T315I (Homo sapiens, UniProt P00519+P11274, T315I)  50 to 1000 nM
8  C[C@@H]1COCc2nc3cc(C(=O)Nc4ccc(OC(F)(F)Cl)cc4)cc(-c4cnccn4)c3n21  Ba/F3 BCR-ABL1 T315I (Homo sapiens, UniProt P00519+P11274, T315I)     5 to 50 nM

Problem: Need IC50, item C[C@@H]1CCSc2nc3cc(C(=O)Nc4ccc(OC(F)(F)Cl)cc4)cc(-c4cnc5c(c4)C(=O)N(C)C5)c3n21
Solution: 5 to 50 nM

Problem: Another molecule: C[C@@H]1COCc2nc3cc(C(=O)Nc4ccc(OC(F)(F)Cl)cc4)cc(-c4cnc5c(c4)-c4nn(-c6nccc(-c7ccc(F)nc7)n6)cc4C5)c3n21
Solution: ≤ 5 nM

Problem: Note, next up: CC1(C)C(=O)Nc2cc(C(=O)Nc3ccc(OC(F)(F)Cl)cc3)cc(-c3cnc4c(c3)-c3nn(-c5ncccn5)cc3C4)c21
Solution: ≤ 5 nM

Problem: Try O=C(Nc1ccc(OC(F)(F)Cl)cc1)c1cnc(N2CC[C@@H](F)C2)c(-c2cnc3c(c2)-c2nn(-c4ncc(N5CC[C@@H](F)C5)cn4)cc2C3)c1 next.
Solution: 5 to 50 nM

Problem: Try the molecule CC(C)n1cnc2cc(C(=O)Nc3ccc(OC(F)(F)Cl)cc3)cc(-c3cnc4c(c3)-c3nn(-c5ncccn5)cc3C4)c21
Solution: ≤ 5 nM

---

// reported pIC50 per item
# ASSAYED_TARGET: Ba/F3 BCR-ABL1 T315I (Homo sapiens, UniProt P00519+P11274, T315I)
# Construct: BCR (N-terminal fusion partner of the oncoprotein)
# ASSAY_PROTOCOL: Cell growth inhibitory activity assay (CellTiter-Glo), Ba/F3 BCR-ABL1 T315I cells
# STUDY_CONDITIONS: 72 h, CTG cell viability
pIC50: −log10 of the molar value.

> print(dat)
                                   compound                            assayed.target        result
1  CC1(C)C(=O)Nc2cc(C(=O)Nc3ccc(OC(F)(F)Cl)cc3)cc(-c3cnc4c(c3)-c3n[nH]cc3C4)c21  Ba/F3 BCR-ABL1 T315I (Homo sapiens, UniProt P00519+P11274, T315I)  7.30 to 8.30
2  CC(C)n1cnc2cc(C(=O)Nc3ccc(OC(F)(F)Cl)cc3)cc(-c3cnc4c(c3)-c3n[nH]cc3C4)c21  Ba/F3 BCR-ABL1 T315I (Homo sapiens, UniProt P00519+P11274, T315I)  7.30 to 8.30

Problem: Data request, read-out pIC50, for C[C@@H]1CCC(O)c2nc3cc(C(=O)Nc4ccc(OC(F)(F)Cl)cc4)cc(-c4cnc5c(c4)C(=O)NC5)c3n21 (stereo partly shown)
Solution: 6.00 to 7.30

Problem: Next compound: [2H]C([2H])([2H])N1Cc2ncc(-c3cc(C(=O)Nc4ccc(OC(F)(F)Cl)cc4)cc4nc5n(c34)[C@H](C)COC5)cc2C1=O
Solution: 7.30 to 8.30

Problem: Please do the same for O=C(Nc1ccc(OC(F)(F)Cl)cc1)c1cc2c(c(-c3cnc4c(c3)-c3n[nH]cc3C4)c1)C1(CCCCC1)C(=O)N2 as well.
Solution: 7.30 to 8.30

Problem: # repeat for CC(C)n1ncc2c1-c1cc(-c3cc(C(=O)Nc4ccc(OC(F)(F)Cl)cc4)cnc3N3CC[C@@H](F)C3)cnc1C2
Solution: 7.30 to 8.30

Problem: Note, next up: C[C@@H]1CN(C)Cc2nc3cc(C(=O)Nc4ccc(OC(F)(F)Cl)cc4)cc(-c4cnc5c(c4)C(=O)N(C4CC4)C5)c3n21
Solution: < 6.00

---

# ASSAYED_TARGET: Ba/F3 BCR-ABL1 A337V (Homo sapiens, UniProt P00519+P11274, A337V)
# Construct: BCR (N-terminal fusion partner of the oncoprotein)
# ASSAY_PROTOCOL: Cell growth inhibitory activity assay (CellTiter-Glo), Ba/F3 BCR-ABL1 A337V cells
# STUDY_CONDITIONS: 72 h, CTG cell viability
pIC50: −log10 of the molar value.
RECORDED_METRIC: pIC50

Please review the following examples before continuing.
SMILES_CODE	RESULT
C[C@@H]1COCc2nc3cc(C(=O)Nc4ccc(OC(F)(F)Cl)cc4)cc(-c4cnc5c(c4)-c4nn(-c6ncc(F)cn6)cc4C5)c3n21	7.30 to 8.30
C[C@@H]1CCSc2nc3cc(C(=O)Nc4ccc(OC(F)(F)Cl)cc4)cc(-c4cnc5c(c4)C(=O)N(C)C5)c3n21	6.00 to 7.30
C[C@@H]1COCc2nc3cc(C(=O)Nc4ccc(OC(F)(F)Cl)cc4)cc(-c4cnc5c(c4)-c4n[nH]cc4C5)c3n21	7.30 to 8.30

Problem: Reported pIC50, compound C[C@@H]1COCc2nc3cc(C(=O)Nc4ccc(OC(F)(F)Cl)cc4)cc(-c4cnc5c(c4)-c4nn(-c6nccc(C#N)n6)cc4C5)c3n21 : ____
Solution: 6.00 to 7.30

Problem: What about CC(C)n1cnc2cc(C(=O)Nc3ccc(OC(F)(F)Cl)cc3)cc(-c3cnc4c(c3)C(=O)N(C)C4)c21 ?
Solution: 6.00 to 7.30

Problem: Next: C[C@@H]1COCc2nc3cc(C(=O)Nc4ccc(OC(F)(F)Cl)cc4)cc(-c4cnc5c(c4)-c4nn(-c6ncccn6)cc4C5)c3n21
Solution: ≥ 8.30

---

# ASSAYED_TARGET: Ba/F3 BCR-ABL1 WT (Homo sapiens, UniProt P00519+P11274)
# Construct: BCR (N-terminal fusion partner of the oncoprotein)
# ASSAY_PROTOCOL: Cell growth inhibitory activity assay (CellTiter-Glo), Ba/F3 BCR-ABL1 WT cells
# STUDY_CONDITIONS: 72 h, CTG cell viability
pIC50: −log10 of the molar value.
Listing of entries alongside the reported pIC50.

// solved cases for pIC50 follow
> print(dat)
                                smiles.code  result
1  Cc1ccnc(-n2cc3c(n2)-c2cc(-c4cc(C(=O)Nc5ccc(OC(F)(F)Cl)cc5)cc5nc6n(c45)[C@H](C)COC6)cnc2C3)n1  ≥ 8.30
2  N#Cc1ccc(-c2ccnc(-n3cc4c(n3)-c3cc(-c5cc(C(=O)Nc6ccc(OC(F)(F)Cl)cc6)cnc5N5CC[C@@H](F)C5)cnc3C4)n2)cn1  ≥ 8.30
3  CCn1cc2c(n1)-c1cc(-c3cc(C(=O)Nc4ccc(OC(F)(F)Cl)cc4)cc4nc5n(c34)[C@H](C)COC5)cnc1C2  ≥ 8.30
4  O=C(Nc1ccc(OC(F)(F)Cl)cc1)c1cc2c(c(-c3cnc4c(c3)-c3nn(-c5ncccn5)cc3C4)c1)C1(CCCCC1)C(=O)N2  ≥ 8.30
5  C[C@@H]1COCc2nc3cc(C(=O)Nc4ccc(OC(F)(F)Cl)cc4)cc(-c4cnc5c(c4)-c4nn(-c6cncnc6)cc4C5)c3n21  ≥ 8.30

Read the next record carefully.
Problem: Hello, I am looking for reported pIC50 with Ba/F3 BCR-ABL1 WT (Homo sapiens, UniProt P00519+P11274) for C[C@@H]1COCc2nc3cc(C(=O)Nc4ccc(OC(F)(F)Cl)cc4)cc(-c4cnc5c(c4)-c4nn(CC(F)(F)F)cc4C5)c3n21 . Could you help?
Solution: ≥ 8.30
